Values were extracted from ChEMBL document CHEMBL1157539.

# System: Plasmodium falciparum
# ASSAY SUMMARY: GSK_TCMDC: Inhibition of Plasmodium falciparum 3D7 in whole red blood cells, using parasite LDH activity as an index of growth. Test compounds present at 2uM
# Format: functional
List of Inhibition values.
Please reply with the bare figure in % and do not write the unit itself.

{"columns": ["COMPOUND", "UNIT NAME", "Inhibition"],
 "data": [
  ["CCCCc1ccc(C(=O)NC2CCN(C[C@H](O)c3ccnc4ccc(OC)cc34)CC2)cc1", "%", 91],
  ["Cc1cc(NC2CCN(CC3CCCCC3)C2)nc(Nc2ccc(Cl)cc2)n1 (stereo not drawn)", "%", 98],
  ["Cl.c1ccc(CN2CCN(CCNc3c4ccccc4nc4ccccc34)CC2)cc1", "%", 100],
  ["CC(C)(C)C1=CC(=NNC(=O)c2ccncc2)C=C(C(C)(C)C)C1=O", "%", 99],
  ["CN1CCCN(Cc2ccc(-c3cccc(NC(=O)c4ccc(C#N)cc4)c3)cc2)CC1.O=C(O)C(F)(F)F", "%", 100]
]}

Inhibition for `Cc1cc(OCCCNC(=N)c2ccc3ccccc3c2)c(C(C)C)cc1Cl.Cc1ccc(S(=O)(=O)O)cc1` ?
95

Inhibition for `CCN(CCCN1CCCCC1)c1cc(C)nc(Nc2cc(C)ccc2C)n1.O=C(O)C(F)(F)F` ?
93

Inhibition for `Cc1nc(NCCc2c[nH]cn2)cc(NCc2ccccc2)n1` ?
100
